experiment: Selectivity index, ratio of CC50 for human H1HeLa cells to EC50 for Human rhinovirus B14 infected in human H1HeLa cells; assay type: toxicity, cell-based; conditions: read-out: Ratio CC50/EC50
Answer each item with its documented selectivity ratio.

Quick one: selectivity ratio of CCOC(=O)c1ccc2ccc(Oc3ccnc(C(=O)NC)c3)cc2c1 ?
9.9

Quick one: selectivity ratio of Cc1cc(CCCOc2c(C)cc(-c3noc(C(F)(F)F)n3)cc2C)on1 [PLECONARIL] ?
210

Quick one: selectivity ratio of CNC(=O)c1cc(Oc2ccc3cc(C(=O)OC(C)C)sc3c2)ccn1 ?
27

Quick one: selectivity ratio of CCCOC(=O)c1sc2cc(Oc3ccnc(C(=O)NC)c3)ccc2c1C ?
13

Quick one: selectivity ratio of CNC(=O)c1cc(Oc2ccc3cc(C(=O)OC(C)C)n(C)c3c2)ccn1 ?
13

Quick one: selectivity ratio of CNC(=O)c1cc(Oc2ccc3ccc(C(=O)OC)cc3c2)ccn1 ?
4.9

Quick one: selectivity ratio of CNC(=O)c1cc(Oc2ccc3c(C)c(C(=O)OC(C)C)sc3c2)ccn1 ?
220

Quick one: selectivity ratio of CNC(=O)c1cc(Oc2ccc3c(C)c(C(=O)OC)sc3c2)ccn1 ?
5.4

Quick one: selectivity ratio of CCOC(=O)c1sc2cc(Oc3ccnc(C(=O)NC)c3)ccc2c1C ?
30

Quick one: selectivity ratio of CNC(=O)c1cc(Oc2ccc3c(C)c(C(=O)OCC(C)C)sc3c2)ccn1 ?
3.6
